Attribution: patent US11613525B2

Provide the reported pEC50 of each item.
# test-system: huSTING (HAQ) (Homo sapiens (Human), UniProt Q86WV6, G230A/H232R/R293Q/R71H)
# Sequence (Q86WV6 whole entry R71H/G230A/H232R/R293Q): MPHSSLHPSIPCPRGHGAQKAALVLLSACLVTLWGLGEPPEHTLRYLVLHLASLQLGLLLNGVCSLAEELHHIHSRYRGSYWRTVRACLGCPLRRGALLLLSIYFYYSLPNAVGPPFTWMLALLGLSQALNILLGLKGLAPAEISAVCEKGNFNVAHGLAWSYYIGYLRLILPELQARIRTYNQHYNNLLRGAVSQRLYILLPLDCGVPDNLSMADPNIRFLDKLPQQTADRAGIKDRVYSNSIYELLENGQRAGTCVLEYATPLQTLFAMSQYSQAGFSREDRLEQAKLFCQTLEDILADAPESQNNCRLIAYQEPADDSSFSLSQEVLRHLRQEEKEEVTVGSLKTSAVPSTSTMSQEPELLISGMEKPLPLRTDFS
# assay-name: THP-1 reporter cell line assay, THP-1 STING Lucia ISG cells
# Assay type: cell-based
# stated-conditions: THP-1 STING Lucia ISG cells; modified method, top concentration 40 μM, pin tool, EnVision; read-out: Cellular EC50 huSTING (HAQ)
When answering, recall that pEC50 equals minus log10 of the concentration in mol/L, and write that number alone.

Incoming: For the compound CN(C)C(=O)COC(=O)c1sc2cccc(Cl)c2c1COc1c(F)cc(C(N)=O)cc1F [Example 127] , give its reported pEC50.
Outgoing: 7.59

Incoming: For the compound CCOC(=O)c1sc2ccnc(OC)c2c1COc1c(F)cc(C(N)=O)cc1CO [Example 121] , give its reported pEC50.
Outgoing: 7.23

Incoming: For the compound CC(C)(C)C(=O)OCOC(=O)c1sc2cccc(Cl)c2c1COc1c(F)cc(C(N)=O)cc1F [Example 173] , give its reported pEC50.
Outgoing: 7.26

Incoming: For the compound C=Cc1cc(OCc2c(C(=O)OCC)sc3cccc(Cl)c23)ccc1C(N)=O [Example 168] , give its reported pEC50.
Outgoing: 5.13

Incoming: For the compound CCOC(=O)c1sc2c(C#N)ccc(Cl)c2c1COc1c(F)cc(C(N)=O)cc1F [Example 153] , give its reported pEC50.
Outgoing: 6.89

Incoming: For the compound CC(C)(C)C(=O)OCOC(=O)c1sc2cccc(Br)c2c1COc1c(F)cc(C(N)=O)cc1F [Example 128] , give its reported pEC50.
Outgoing: 7.17

Incoming: For the compound CCOC(=O)c1sc2c(OC)ccc(Cl)c2c1COc1c(F)cc(C(N)=O)cc1F [Example 149] , give its reported pEC50.
Outgoing: 6.21

Incoming: For the compound COC(=O)N1CCC(OC(=O)c2sc3cccc(Cl)c3c2COc2c(F)cc(C(N)=O)cc2F)CC1 [Example 163] , give its reported pEC50.
Outgoing: 7.21

Incoming: For the compound CC(C)(C)C(=O)OCOC(=O)c1sc2c(F)ccc(Br)c2c1COc1c(F)cc(C(N)=O)cc1F [Example 131] , give its reported pEC50.
Outgoing: 7.36

Incoming: For the compound CCOC(=O)c1sc2cccc(Cl)c2c1COc1c(F)cc(C(N)=O)cc1CO [Example 110] , give its reported pEC50.
Outgoing: 7.89

Incoming: For the compound CCOC(=O)c1sc2ncnc(OC)c2c1COc1c(F)cc(C(N)=O)cc1F [Example 108] , give its reported pEC50.
Outgoing: 6.46

Incoming: For the compound CC(=O)NCCOC(=O)c1sc2cccc(Cl)c2c1COc1c(F)cc(C(N)=O)cc1F [Example 159] , give its reported pEC50.
Outgoing: 7.36

Incoming: For the compound COC(=O)N(C)CCOC(=O)c1sc2cccc(Cl)c2c1COc1c(F)cc(C(N)=O)cc1F [Example 161] , give its reported pEC50.
Outgoing: 7.21

Incoming: For the compound CCOC(=O)c1sc2c(CO)ccc(Cl)c2c1COc1c(F)cc(C(N)=O)cc1F [Example 145] , give its reported pEC50.
Outgoing: 6.13

Incoming: For the compound COc1cccc2sc(C(=O)OCCN3CCOCC3)c(COc3ccc(C(N)=O)cc3)c12 [Example 157] , give its reported pEC50.
Outgoing: 6.43

Incoming: For the compound Cc1oc(=O)oc1COC(=O)c1sc2cccc(Cl)c2c1COc1c(F)cc(C(N)=O)cc1F [Example 126] , give its reported pEC50.
Outgoing: 7.41
